# experiment notes: Biochemical counterscreen for C difficile toxins, absence of UDPG, inhibitor dose response (AID 720650)
# particulars: series mostly up to 19.5 µM
Active and inactive are the calls of the source. The rule behind the calls is not given here.
The categories you may choose from are TRUE for active, FALSE for inactive

**Q:** Kindly provide the recorded test outcome for the following molecule: O=C1NC(=O)/C(=C/c2ccc(O)cc2)S1
**A:** TRUE

**Q:** // same read-out, input: c1ccc(SCc2nc3ccccc3s2)nc1
**A:** FALSE

**Q:** Input CC(=O)C(Sc1nccc(-c2cccs2)n1)C(C)=O
**A:** TRUE

**Q:** Item: S=c1nc(-c2cccc(Cl)c2)[nH][nH]1
**A:** TRUE

**Q:** Same question, O=C(CCC(=O)N1CCSc2ccccc21)Nc1cccc(F)c1 this time
**A:** FALSE

**Q:** Similarly, CCCNC(=O)N1CC[C@@H]2[C@@H](CO)N(C)c3ccc(-c4ccc(F)cc4)cc3[C@@H]21 ?
**A:** TRUE

**Q:** Please answer likewise for C[C@H](CO)N1C[C@H](C)[C@@H](CN(C)C(=O)Nc2ccc(C(F)(F)F)cc2)Oc2c(cccc2N(C)C)C1=O
**A:** TRUE

**Q:** What do you have for COc1cc(NC(=O)CCc2nnc3ccc(N4CCC(C)CC4)nn23)cc(OC)c1 ?
**A:** FALSE

**Q:** Consider next the molecule COCCn1c(NC(=S)NC(=O)C2CC2)cc(=O)[nH]c1=O in the same way.
**A:** FALSE

**Q:** // repeat for Nc1ccc(N=Nc2ccc(O)cc2)c(N)n1 and report
**A:** TRUE

**Q:** Again, but for Cc1cccc(/C=C/c2onc(C)c2S(=O)(=O)N2CCC(C(=O)NC(C)(C)C)CC2)c1
**A:** FALSE

###

# experiment notes: Biochemical counterscreen for C difficile toxins, absence of UDPG, inhibitor dose response (AID 720650)
# particulars: series mostly up to 19.5 µM
Activity calls are given as the source filed them. No rule for the calls is given here.
Select the correct class. Options are true (1) for active, false (0) for inactive and nothing else.

**Q:** Name the outcome recorded for COc1ccc(CCNC(=O)CCCn2nc(C)n3ccnc3c2=O)cc1OC in the assay.
**A:** false (0)

**Q:** CCC(=O)Nc1ccc2c(c1)OC[C@@H](C)N(C(=O)NC(C)C)C[C@H](C)[C@H](OC)CN(C)C2=O , same question.
**A:** false (0)

**Q:** Can you check O=C(Cc1ccccc1)NNC(=S)NC(=O)c1cccnc1 next?
**A:** false (0)

**Q:** Check CCOC(=O)c1cc([N+](=O)[O-])sc1N too.
**A:** false (0)

**Q:** Another: COc1ccc(-c2nc(N)ncc2-c2ccccc2OC)c(O)c1
**A:** false (0)

**Q:** Same question for CCCCn1c(N)c(N(CC)C(=O)c2cccs2)c(=O)[nH]c1=O please.
**A:** false (0)

**Q:** Proceed to O=C(CCNC(=O)c1ccccc1Cl)N/N=C\c1ccc(O)cc1
**A:** true (1)

**Q:** Can you handle CCOc1ccccc1/C=C/c1onc(C)c1S(=O)(=O)N1CCC(C(=O)N2CCCCCC2)CC1 next?
**A:** false (0)

**Q:** Next up: C=CC[C@@H](CC(=O)N(CCO)Cc1ccccc1)C(=O)NC[C@@H](OC(=O)[C@@H](CC=C)CC(=O)OC(C)(C)C)c1ccccc1
**A:** false (0)

**Q:** Try the compound COc1cc(/C=C/C(=O)c2ccc([N+](=O)[O-])o2)ccc1O
**A:** false (0)

**Q:** Repeat for the following compound: CCCc1cc(-c2n[nH]c(C(=O)OCC)c2-c2cscn2)c(O)cc1O
**A:** false (0)

**Q:** Now consider C[C@@H]1CN([C@H](C)CO)S(=O)(=O)c2ccc(-c3ccncc3)cc2O[C@@H]1CN(C)Cc1ccc(Oc2ccccc2)cc1 .
**A:** false (0)

**Q:** Same question for Cc1ccc(/C=C(\C#N)C(=O)Nc2ccccn2)o1 please.
**A:** false (0)

**Q:** Follow-up entry: CNC(=O)C1CCN(S(=O)(=O)c2c(C)noc2/C=C/c2cccc(C)c2)CC1
**A:** false (0)

**Q:** Now the compound O=CN(c1ccccc1)c1ccc2ccccc2c1
**A:** false (0)

**Q:** Request: CCCCn1c(CN2CCN(C(=O)c3ccco3)CC2)nc2c1c(=O)n(C)c(=O)n2C
**A:** false (0)

**Q:** Next compound: COc1ccc(-c2ccc3c(c2)[C@@H]2[C@@H](CCN2C(=O)C2CC2)[C@H](CO)N3C)cc1
**A:** true (1)

**Q:** Quick one: COc1ccc(CNC(=O)C2=CC(c3ccc(OC)c(OC)c3)=NS(=O)(=O)N2C)cc1
**A:** false (0)

**Q:** Can you handle COc1cc(/C=N/NC(=O)c2nnn(-c3nonc3N)c2C(C)C)ccc1O next?
**A:** false (0)

**Q:** Same question for CC(=O)Nc1ccc(NC(=O)Cc2ccc(S(=O)(=O)N3CCCCC3)cc2)cc1 please.
**A:** false (0)
